Molecular target: human NK1 receptor (Homo sapiens)
Construct: expressed in transfected cells; membranes
Sequence (P25103 whole entry): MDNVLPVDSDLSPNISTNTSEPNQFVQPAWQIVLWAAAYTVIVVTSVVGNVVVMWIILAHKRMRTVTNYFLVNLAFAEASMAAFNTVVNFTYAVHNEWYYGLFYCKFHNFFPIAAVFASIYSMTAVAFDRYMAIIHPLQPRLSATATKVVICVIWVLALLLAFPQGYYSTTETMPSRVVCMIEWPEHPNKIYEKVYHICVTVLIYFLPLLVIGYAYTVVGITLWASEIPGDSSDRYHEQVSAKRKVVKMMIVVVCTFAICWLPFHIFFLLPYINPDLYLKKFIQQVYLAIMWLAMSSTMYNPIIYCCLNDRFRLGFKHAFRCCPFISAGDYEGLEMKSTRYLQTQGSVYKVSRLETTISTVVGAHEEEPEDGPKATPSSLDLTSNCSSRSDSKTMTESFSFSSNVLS
Experiment: Receptor binding for human NK1 receptors ([3H]-substance P displacement, CHO cell membranes)
Conditions: human NK1 receptor in CHO membranes, read-out: affinity NK-1 binding pKi (converted)
Measured endpoint: Ki (nM)

- Smiles code: "O=C(c1cc(C(F)(F)F)cc(C(F)(F)F)c1)N1C[C@H]2CCC(c3ccccn3)=CN2C[C@H]1Cc1c[nH]c2ccccc12"
  Unit symbol: "nM"
  Numeric value: 3.16
- Smiles code: "O=C(c1cc(C(F)(F)F)cc(C(F)(F)F)c1)N1C[C@H]2CCC(c3ncccn3)=CN2C[C@H]1Cc1c[nH]c2ccccc12"
  Unit symbol: "nM"
  Numeric value: 1.58
- Smiles code: "O=C(c1cc(C(F)(F)F)cc(C(F)(F)F)c1)N1C[C@H]2CCC(c3cnccn3)=CN2C[C@H]1Cc1c[nH]c2ccccc12"
  Unit symbol: "nM"
  Numeric value: 2.51
- Smiles code: "O=C(c1cc(C(F)(F)F)cc(C(F)(F)F)c1)N1C[C@H]2CCC(c3ccncc3)=CN2C[C@H]1Cc1c[nH]c2ccccc12"
  Unit symbol: "nM"
  Numeric value: 15.8
- Smiles code: "O=C(c1cc(C(F)(F)F)cc(C(F)(F)F)c1)N1C[C@H]2CCC(c3cccnc3)=CN2C[C@H]1Cc1c[nH]c2ccccc12"
  Unit symbol: "nM"
  Numeric value: 20
- Smiles code: "O=C(c1cc(C(F)(F)F)cc(C(F)(F)F)c1)N1C[C@H]2CCC(c3cncnc3)=CN2C[C@H]1Cc1c[nH]c2ccccc12"
  Unit symbol: "nM"
  Numeric value: 7.94
- Smiles code: "O=C(c1cc(C(F)(F)F)cc(C(F)(F)F)c1)N1C[C@H]2CCC(c3nccs3)=CN2C[C@H]1Cc1c[nH]c2ccccc12"
  Unit symbol: "nM"
  Numeric value: 0.631

Where do the numbers come from? From patent US7244734B2.
